# TARGET_ENTITY: human Opioid Receptor Mu (Opiate Mu), OPRM1 (gene 4988) (UniProt P35372)
# Sequence (P35372 whole entry, looked up): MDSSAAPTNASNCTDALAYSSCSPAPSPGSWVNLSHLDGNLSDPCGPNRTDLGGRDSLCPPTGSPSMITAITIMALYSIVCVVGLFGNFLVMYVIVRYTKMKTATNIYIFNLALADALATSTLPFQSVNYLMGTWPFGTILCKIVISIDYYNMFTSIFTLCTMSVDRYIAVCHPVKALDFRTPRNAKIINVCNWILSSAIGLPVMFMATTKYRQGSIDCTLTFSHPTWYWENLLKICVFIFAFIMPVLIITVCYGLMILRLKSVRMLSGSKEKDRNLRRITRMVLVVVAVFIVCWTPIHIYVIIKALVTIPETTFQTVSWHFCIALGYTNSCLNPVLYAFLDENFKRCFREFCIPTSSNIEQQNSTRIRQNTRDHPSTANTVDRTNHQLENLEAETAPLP
# ASSAY_DETAILS: NVS_GPCR_hOpiate_mu: NovaScreen (NVS) G Protein-Coupled Receptor Assay for human Opioid Receptor Mu (Opiate Mu) (AID 2283290);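 note: hits lower bound tracer signal versus DMSO meaning displacement of the ligand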
Results filed as inconclusive are left out. Calls of active or inactive are those of the source. Rule for the calls: active = hit-call score of the fitted dose curve at least 0.9, where 1 is the maximum; inconclusive = response in the unintended direction; inactive = score below 0.9.
Outcome codes: active, inactive

- COMPOUND: "CCN(CC)C(=O)C(C)Oc1cccc2ccccc12 (centres undefined)"
  ASSIGNED_CATEGORY: "active"
- COMPOUND: "O=C1C2CC=CCC2C(=O)N1SC(Cl)(Cl)Cl (centres undefined)"
  ASSIGNED_CATEGORY: "active"
- COMPOUND: "COP(=S)(OC)SCn1nnc2ccccc2c1=O"
  ASSIGNED_CATEGORY: "inactive"
- COMPOUND: "CCCCC(O)(Cn1cncn1)c1ccc(Cl)cc1Cl (centres undefined)"
  ASSIGNED_CATEGORY: "active"
